Catalogue of IC50 values
Tested on: HTT mRNA
Assay: RT-qPCR splicing assay, HTT mRNA canonical (CJ) and alternative (AJ) junction
Format: cell-based, human
Conditions: Homo sapiens, RT-qPCR, HTT canonical junction mRNA decrease; read-out: HTT CJ (decrease in canonical junction mRNA, IC50)

Please review the entries below; each comes with its answer.
compound	IC50
COc1cc(-c2ncc3cc(N4C[C@@H](C)N[C@@H](C)C4)ccc3n2)cn2cc(C)nc12 [Compound 830]	1 to 10 µM
Cc1nc(-c2cc3cn(C)nc3c(C)c2O)nc2ccc(N3C[C@@H](C)N[C@@H](C)C3)cc12 [Compound 783]	> 10 µM
Cc1nc(-c2cc3cn(C)nc3cc2O)nc2ccc(N3C[C@H](C)N[C@@H](C)C3)cc12 (single isomer, unassigned) [Compound 806]	> 10 µM

As a next step, examine the compound that follows.
[in] Identify the reported IC50 for the following entry. CCc1cn2cc(-c3ncc4cc(N5C[C@H](C)N[C@@H](C)C5)ccc4n3)cc(F)c2n1 [Compound 821]
[out] > 10 µM

====

Catalogue of IC50 values
System: MYB
Assay: HiBiT protein abundance assay, MYB (K562 HiBiT knock-in)
Assay type: cell-based, human
Settings: HiBiT knock-in K562 cells, 24 hours, top dose 10 μM

Please review the entries below; each comes with its answer.
molecule	IC50
Cn1cc2cc(-c3ccc4nc(N5CC[C@H](NCC6CC6)C5)ccc4n3)c(O)cc2n1	< 100 nM
Cc1nc2cc(O)c(-c3ccc4cc(N5CC[C@H](NC(C)(C)C)C5)ncc4n3)cc2o1	1000 to 10000 nM
CNC1CCN(c2ccc3nc(-c4cc(F)c5nc(C)cn5c4)ncc3n2)C1 (centres unmarked)	< 100 nM

[in] Identify the reported IC50 for the following entry. Cc1nc2c(C)c(O)c(-c3ccc4nc(N5CC[C@@H](NC6CCC6)C5)ccc4n3)cc2o1
[out] < 100 nM

[in] Identify the reported IC50 for the following entry. Cc1c(O)c(-c2ncc3nc([C@H]4CCNC4)ccc3n2)cc2cn(C)nc12
[out] 1000 to 10000 nM

[in] Identify the reported IC50 for the following entry. Cc1nc2cc(O)c(-c3ccc4nc(N5CCC(NC6CCC6)C5)ccc4n3)cc2o1 (centres unmarked)
[out] < 100 nM

[in] Identify the reported IC50 for the following entry. Cc1c(O)c(-c2ccc3nc(N4CC[C@H](NC5CC5)C4)ncc3n2)cc2cn(C)nc12
[out] 100 to 1000 nM

[in] Identify the reported IC50 for the following entry. CNC(=O)c1nc(-c2cc3cn(C)nc3c(C)c2O)nc2ccc(N3CCC(NC)C3)cc12 (centres unmarked)
[out] < 100 nM

====

Test system: HTT
Assay: HiBiT protein abundance assay, HTT (K562 HiBiT knock-in)
Assay type: cell-based, human
Conditions: HiBiT knock-in K562 cells, 24 hours, top dose 10 μM
pIC50: −log10 of the molar value.
result_type: pIC50

Please review the entries below; each comes with its answer.
compound	pIC50
O=C(Nc1cn[nH]c1)Nc1cc2nc(N3CCNCC3)ccc2cn1	< 5.00
Cc1nc2c(C)c(O)c(-c3ccc4nc(N5CC[C@@H](NC6(C)CC6)C5)ccc4n3)cc2o1 (single isomer, unassigned)	> 7.00
Cc1nc2c(C)c(O)c(-c3ccc4cc(N5CC[C@H](NC(C)(C)C)C5)ncc4n3)cc2o1 (single isomer, unassigned)	6.00 to 7.00

As a next step, examine the compound that follows.
[in] Identify the reported pIC50 for the following entry. Cc1nc2c(C)c(O)c(-c3ccc4nc(N5CC[C@@H](N[C@H]6C[C@@H](F)C6)C5)ccc4n3)cc2o1 (stereo in doubt)
[out] > 7.00

====

Catalogue of pIC50 values
Test system: HTT
Test: HiBiT protein abundance assay, HTT (K562 HiBiT knock-in)
Assay type: cell-based, human
Details: HiBiT knock-in K562 cells, 24 hours, top dose 10 μM
pIC50: −log10 of the molar value.

Please review the entries below; each comes with its answer.
molecule	pIC50
Cn1cc2cc(-c3ccc4nc(N5CC[C@@H](NCC6CC6)C5)ccc4n3)c(O)cc2n1 [Compound 195]	6.00 to 7.00
CCN(CC)C1CCN(c2ccc3nc(-c4cc5cn(C)nc5c(F)c4O)ncc3c2)CC1 [Compound 756]	6.00 to 7.00
Cn1cc2cc(-c3ccc4nc(N5CC[C@@H](NC6CC6)C5)ccc4n3)c(O)cc2n1 [Compound 198]	> 7.00

As a next step, examine the molecule that follows.
[in] Identify the reported pIC50 for the following entry. Cc1nc2cc(O)c(-c3ccc4nc(N5CC[C@@H](NC(C)(C)C)C5)ccc4n3)cc2o1 [Compound 210]
[out] > 7.00

====

Tested on: MYB mRNA
Experiment: RT-qPCR splicing assay, MYB mRNA canonical (CJ) and alternative (AJ) junction
Format: cell-based, human
Details: Homo sapiens, RT-qPCR, MYB canonical junction mRNA decrease; read-out: MYB CJ (decrease in canonical junction mRNA, IC50)
result_type: IC50

molecule	target_or_system	result_type	result
Cc1c(O)c(-c2ncc3cc(N4C[C@H](C)NC5(CC5)C4)ccc3n2)cc2cn(C)nc12 (single isomer, unassigned) [Compound 810]	MYB mRNA	IC50	100 to 1000 nM
Cc1c(O)c(-c2ncc3cc(N4C[C@@H](C)NC5(CC5)C4)ccc3n2)cc2cn(C)nc12 (single isomer, unassigned) [Compound 811]	MYB mRNA	IC50	< 100 nM
Cc1cn2cc(-c3ncc4cc(N5C[C@H](C)NC6(CC6)C5)ccc4n3)cc(F)c2n1 (single isomer, unassigned) [Compound 814]	MYB mRNA	IC50	100 to 1000 nM
C[C@H]1CN(c2ccc3nc(-c4cc(F)c5nncn5c4)ncc3c2)C[C@H](C)N1 (single isomer, unassigned) [Compound 820]	MYB mRNA	IC50	1000 to 10000 nM
Cc1c(O)c(-c2ccc3cc(N4C[C@H](C)N[C@@H](C)C4)cc(F)c3n2)cc2cn(C)nc12 (single isomer, unassigned) [Compound 800, 2,2,2-trifluoroacetate]	MYB mRNA	IC50	< 100 nM
Cc1cn2cc(-c3ncc4cc(N5C[C@@H](C)N[C@@H](C)C5)ccc4n3)ccc2n1 [Compound 832]	MYB mRNA	IC50	100 to 1000 nM
Cc1nc2c(F)cc(-c3ncc4cc(N5C[C@H](C)N[C@@H](C)C5)ccc4n3)cn2c1F (single isomer, unassigned) [Compound 822]	MYB mRNA	IC50	100 to 1000 nM
COc1cc(-c2ncc3cc(N4C[C@H](C)N[C@@H](C)C4)ccc3n2)cn2cc(C)nc12 [Compound 816]	MYB mRNA	IC50	100 to 1000 nM

[in] Send back MYB mRNA IC50 of Cc1nc(-c2cc(F)c3nn(C)cc3c2)nc2ccc(N3C[C@@H](C)N[C@@H](C)C3)cc12 [Compound 781] only.
[out] 1000 to 10000 nM

[in] Send back MYB mRNA IC50 of C[C@@H]1CN(c2ccc3nc(-c4cc(F)c5nncn5c4)ncc3c2)C[C@H](C)N1 [Compound 833] only.
[out] 1000 to 10000 nM

[in] Send back MYB mRNA IC50 of Cc1cn2cc(-c3ncc4cc(N5C[C@@H](C)N[C@@H](C)C5)ccc4n3)cc(F)c2n1 [Compound 773] only.
[out] < 100 nM

[in] Send back MYB mRNA IC50 of COc1nc(-c2ncc3cc(N4C[C@H](C)N[C@@H](C)C4)ccc3n2)cn2cc(C)nc12 [Compound 823] only.
[out] 100 to 1000 nM

[in] Send back MYB mRNA IC50 of Cc1c(O)c(-c2nc(C(N)=O)c3cc(N4C[C@@H](C)N[C@@H](C)C4)ccc3n2)cc2cn(C)nc12 [Compound 784] only.
[out] < 100 nM

[in] Send back MYB mRNA IC50 of C[C@H]1CN(c2ccc3nc(-c4cc5cn(C)nc5cc4O)nc(C(N)=O)c3c2)C[C@H](C)N1 [Compound 797] only.
[out] < 100 nM

====

Test system: MYB mRNA
Test: RT-qPCR splicing assay, MYB mRNA canonical (CJ) and alternative (AJ) junction
Type: cell-based, human
Conditions: Homo sapiens, RT-qPCR, MYB alternative junction mRNA increase; read-out: MYB AJ (increase in alternative junction mRNA, AC50)
result_type: AC50

Please review the entries below; each comes with its answer.
molecule	AC50
C[C@H]1CN(c2ccc3nc(-c4cc5cn(C)nc5cc4O)nc(C(N)=O)c3c2)C[C@H](C)N1 [Compound 797]	< 100 nM
C[C@H]1CN(c2cc(F)c3nc(-c4cc(F)c5nn(C)cc5c4)ccc3c2)C[C@H](C)N1 (single isomer, unassigned) [Compound 760]	100 to 1000 nM
COc1nc(-c2ncc3cc(N4C[C@@H](C)N[C@@H](C)C4)ccc3n2)cn2cc(C)nc12 [Compound 838]	100 to 1000 nM

As a next step, examine the molecule that follows.
[in] Identify the reported AC50 for the following entry. CCc1cn2cc(-c3ncc4cc(N5C[C@H](C)N[C@@H](C)C5)ccc4n3)cc(F)c2n1 [Compound 821]
[out] > 10000 nM
